B1: library; a variant is named by its letters at N, in order (parent)
chain: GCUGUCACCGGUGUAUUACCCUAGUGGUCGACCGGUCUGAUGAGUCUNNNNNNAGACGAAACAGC

# Variants of: B1
# method.description: normalized RNA/DNA level with ligand (relative to sTRSVctl = 100) (log10 (% of sTRSVctl)); ligand: hypoxanthine (xanthine aptamer); higher = less ribozyme self-cleavage, higher mRNA level
# applied.conditions: ligand concentration (+) RNA-Seq: 5 mM, HEK293T, reporter: mCherry (pCS4076), ligand present: yes
readout.name: normalized RNA/DNA level with ligand (log10)
Respond using a number only.

Example entries and their recorded answers appear below.
variant_designation=CUACAG recorded_result=1.91
variant_designation=ACACGG recorded_result=1.79
variant_designation=CGCCAC recorded_result=1.92
variant_designation=AAGACA recorded_result=1.93

Request: Please report normalized RNA/DNA level with ligand (log10) for the following variant: UUUGUU
Response: 1.95

Request: Please report normalized RNA/DNA level with ligand (log10) for the following variant: CGUUUG
Response: 1.96

Request: Please report normalized RNA/DNA level with ligand (log10) for the following variant: CAGCAG
Response: 1.89

Request: Please report normalized RNA/DNA level with ligand (log10) for the following variant: CUACAA
Response: 1.9

Request: Please report normalized RNA/DNA level with ligand (log10) for the following variant: GUCGAA
Response: 1.92

Request: Please report normalized RNA/DNA level with ligand (log10) for the following variant: GUGGUG
Response: 1.83

Request: Please report normalized RNA/DNA level with ligand (log10) for the following variant: UGGUAC
Response: 1.98

Request: Please report normalized RNA/DNA level with ligand (log10) for the following variant: AUGCAC
Response: 1.91

Request: Please report normalized RNA/DNA level with ligand (log10) for the following variant: CUAAUU
Response: 1.94

Request: Please report normalized RNA/DNA level with ligand (log10) for the following variant: UAUCCC
Response: 1.95

Request: Please report normalized RNA/DNA level with ligand (log10) for the following variant: ACUUGG
Response: 1.88

Request: Please report normalized RNA/DNA level with ligand (log10) for the following variant: AUAUAA
Response: 1.88

Request: Please report normalized RNA/DNA level with ligand (log10) for the following variant: CAACGG
Response: 1.85

Request: Please report normalized RNA/DNA level with ligand (log10) for the following variant: CUUCUU
Response: 2.01

Request: Please report normalized RNA/DNA level with ligand (log10) for the following variant: CAACCC
Response: 1.98

Request: Please report normalized RNA/DNA level with ligand (log10) for the following variant: UACAUA
Response: 1.93

Request: Please report normalized RNA/DNA level with ligand (log10) for the following variant: CAGUAA
Response: 1.86

Request: Please report normalized RNA/DNA level with ligand (log10) for the following variant: ACUAAA
Response: 1.9

Request: Please report normalized RNA/DNA level with ligand (log10) for the following variant: GGCUGU
Response: 1.96

Request: Please report normalized RNA/DNA level with ligand (log10) for the following variant: CCGUCA
Response: 1.91

Request: Please report normalized RNA/DNA level with ligand (log10) for the following variant: AAAUUG
Response: 1.88

Request: Please report normalized RNA/DNA level with ligand (log10) for the following variant: UCCCCG
Response: 1.88

Reference source: the supplement of paper PMC6757056
